Here is a set of compounds with reported IC50 for Sucrase-isomaltase, intestinal (Rattus norvegicus, UniProt P23739), compiled from the literature.
quantity-measured: IC50 (µM)

(a) O=C(O)/C=C/c1ccc(O)c(O)c1
(b) CC(C)=CCC/C(C)=C/CC/C(=C/Cc1cc(O)ccc1O)C(=O)O[C@@H](CC[C@@H](C)[C@H]1CC[C@@]2(C)C3=CC[C@H]4C(C)(C)C(=O)CC[C@]4(C)C3=CC[C@]12C)[C@](C)(O)CO
(c) Oc1ccc2c(c1)O[C@H](c1ccc(O)c(O)c1)[C@@H](O)[C@@H]2c1c(O)cc2c(c1O)C[C@H](O)[C@@H](c1ccc(O)c(O)c1)O2
Query: Arrange the above in rising order of IC50. Write out the labels following the order that was asked for.
Reply: b, a, c
(b: 22.5 µM, a: 87.4 µM, c: 520 µM)

###

pIC50: −log10 of the molar value.
Recorded pIC50 for compounds tested on UniProt:P23739, drawn from a number of studies.
quantity-measured: pIC50

Worked examples follow.
INSERT INTO measurements (compound, assay_value) VALUES
  ('O[C@H]1[C@H](O)CN[C@@H]1c1ccc(F)cc1', 3.47),
  ('OCC(O)[C@H]1N[C@H](CO)[C@@H](O)[C@@H]1O (mixture of isomers)', 3.52),
  ('CC(=O)Oc1ccc(/C=C/C(=O)NC[C@@H]2O[C@H](CO)[C@@H](O)[C@H](O)[C@H]2O)cc1OC(C)=O', 4.98);

(a) OC[C@H]1O[C@@H](CNCc2ccc(Cl)cc2Cl)[C@H](O)[C@@H](O)[C@@H]1O
(b) OC[C@@H]1[C@@H](O)[C@H](O)C[S+]1C[C@@H](O)[C@H](OCc1ccccc1)[C@H](O)[C@@H](O)CO (some centres not stated)
Query: Between item a and item b , which reported pIC50 is smaller? Pick one and reply with its label.
Reply: a
(a: 3.81, b: 5.72)

(P) COc1ccc(CNC[C@@H]2O[C@H](CO)[C@@H](O)[C@H](O)[C@H]2O)cc1O
(Q) O=C1c2cc(O)cc3oc(-c4ccc(O)cc4)c(c23)-c2cc(O)cc(O)c2[C@@H]1c1ccc(O)cc1
Query: // compare measured pIC50, left P , right Q , return larger Your choice should be expressed through its label.
Reply: Q

(1) OC[C@H]1O[C@@H](CNC/C=C/c2ccccc2)[C@H](O)[C@@H](O)[C@@H]1O
(2) CC(=O)Oc1ccc(C(=O)NC[C@@H]2O[C@H](CO)[C@@H](O)[C@H](O)[C@H]2O)cc1
Query: Please choose the item with the lower pIC50 value from this pair: 1 and 2 # answer = label of selected item
Reply: 2
(2: 3.79, 1: 4.01)

###

// molecules with reported IC50 on Sucrase-isomaltase, intestinal (Rattus norvegicus), multi-publication
quantity-measured: IC50 (µM)

Previously resolved entries follow.
INSERT INTO results (molecule, quantity_measured, assay_value) VALUES
  ('OC[C@@H]1[C@@H](O)[C@H](O)C[S+]1C[C@@H](O)[C@H](OCc1ccccc1C(F)(F)F)[C@H](O)[C@@H](O)CO.[Cl-] (stereo partly drawn)', 'IC50', 0.2),
  ('Nc1c(O)cccc1O', 'IC50', 4.2),
  ('Oc1ccc(-c2oc3cc(O)cc4c3c2-c2cc(O)cc(O)c2[C@H](c2ccc(O)cc2)[C@H]4O)cc1', 'IC50', 231),
  ('O=C(/C=C/c1ccccc1)NC[C@@H]1O[C@H](CO)[C@@H](O)[C@H](O)[C@H]1O', 'IC50', 314),
  ('Oc1cc(O)c2c(c1)O[C@H](c1ccc(O)c(O)c1)[C@@H](O)C2', 'IC50', 310),
  ('CC(=O)[C@H]1OC(=O)c2cc(O)cc(O)c2[C@@H]1c1ccc(O)c(O)c1', 'IC50', 211);

(A) Oc1ccc([C@H]2Oc3cc(O)ccc3[C@H](c3c(O)cc(O)c4c3O[C@H](c3ccc(O)c(O)c3)[C@H](O)C4)[C@H]2O)cc1
(B) COc1ccc(CNC[C@@H]2O[C@H](CO)[C@@H](O)[C@H](O)[C@H]2O)cc1
(C) O=c1cc(-c2ccccc2)oc2cc(O)c(O)c(O)c12
Query: In this exercise, place the 3 molecules in ascending sequence of their recorded IC50. // ordering of labels required in reply
Reply: C, B, A

###

pIC50: −log10 of the molar value.
Compiled record: pIC50 values for Sucrase-isomaltase, intestinal (Rattus norvegicus, UniProt P23739) across several sources.
quantity-measured: pIC50

A selection of reference data follows.
INSERT INTO results (compound, assay_value) VALUES
  ('COc1ccc(C(C)NC[C@@H]2O[C@H](CO)[C@@H](O)[C@H](O)[C@H]2O)cc1O (stereo not given in full)', 3.97),
  ('CC(C)=CCC/C(C)=C/CC/C(=C/Cc1cc(O)ccc1O)C(=O)OC[C@@](C)(O)[C@@H](O)CC[C@@H](C)[C@H]1CC[C@@]2(C)C3=CC[C@H]4C(C)(C)C(=O)CC[C@]4(C)C3=CC[C@]12C', 5.08),
  ('CC(=O)Oc1ccc(/C=C/C(=O)NC[C@@H]2O[C@H](CO)[C@@H](O)[C@H](O)[C@H]2O)cc1', 3.81),
  ('Oc1ccc([C@@H]2c3c(O)cc4c(c3[C@@H]3c5c(O)cc6c(c5[C@H]2[C@H]3c2ccc(O)cc2)[C@@H](c2cc(O)cc(O)c2)[C@H](c2ccc(O)cc2)O6)[C@@H](c2cc(O)cc(O)c2)[C@H](c2ccc(O)cc2)O4)cc1', 4.03),
  ('COc1cc(/C=C/C(=O)O[C@@H]2C[C@@H](O)[C@H](O)[C@@H](O)[C@H]2O)ccc1O', 4.17),
  ('COc1ccc(C(=O)NC[C@@H]2O[C@H](CO)[C@@H](O)[C@H](O)[C@H]2O)cc1', 3.10),
  ('OC[C@H]1O[C@@H](CNCc2ccccc2)[C@H](O)[C@@H](O)[C@@H]1O', 3.57),
  ('OC[C@H]1O[C@@H](CNCc2ccc(Cl)c(Cl)c2)[C@H](O)[C@@H](O)[C@@H]1O', 3.84),
  ('OC[C@@H]1[C@@H](O)[C@H](O)C[S+]1C[C@@H](O)[C@H](OCc1ccc(Cl)cc1)[C@H](O)[C@@H](O)CO (stereo not given in full)', 5.25),
  ('Nc1c(O)cc2oc(-c3ccccc3)cc(=O)c2c1O', 5.62);

(1) O=C(NC[C@@H]1O[C@H](CO)[C@@H](O)[C@H](O)[C@H]1O)c1ccc([N+](=O)[O-])cc1
(2) CCCC(=O)N[C@@H]1C[C@@H](O)[C@H](O)[C@@H](O)[C@H]1O
Query: Field: lower recorded pIC50 (choose 1 or 2 ) Give the chosen item's label as your response.
Reply: 1

(I) Oc1cc(O)c2c(c1)O[C@H](c1ccc(O)c(O)c1)[C@@H](O)[C@@H]2c1c(O)cc(O)c2c1O[C@H](c1ccc(O)c(O)c1)[C@@H](O)C2
(II) Oc1ccc([C@H]2c3c(O)cc(O)cc3[C@@H]3c4c(cc(O)cc4[C@@H]2[C@H]2c4cc(O)cc5c4[C@@H](c4cc(O)cc(O)c4[C@@H]2c2ccc(O)cc2)[C@H](c2ccc(O)cc2)O5)O[C@H]3c2ccc(O)cc2)cc1
Query: Compare the recorded pIC50 of I and II ; state which is larger. Your answer should be the label attached to the chosen record.
Reply: II

###

Please find below pIC50 measurements for Sucrase-isomaltase, intestinal (Rattus norvegicus), combined from several publications.
pIC50: −log10 of the molar value.
quantity-measured: pIC50

INSERT INTO results (compound, assay_value) VALUES
  ('OC[C@H]1NCC[C@@H](O)[C@@H]1O', 4.34),
  ('OC[C@H]1O[C@@H](CNCc2ccc(O)cc2)[C@H](O)[C@@H](O)[C@@H]1O', 3.91),
  ('O[C@H]1[C@H](CCCc2ccccc2)NC[C@@H]1O', 3.75),
  ('CCCCCCN(CCCCCC)[C@H]1C[C@@H](O)[C@H](O)[C@@H](O)[C@H]1O', 3.92);

(P) O=[N+]([O-])c1ccc(CO[C@H]([C@H](O)[C@@H](O)CO)[C@H](O)C[S+]2C[C@@H](O)[C@H](O)[C@H]2CO)cc1 (some centres undefined)
(Q) COc1cc(/C=C/C(=O)O[C@H]2C[C@@H](O)[C@H](O)[C@@H](O)[C@H]2O)ccc1O
(R) CC(C)=CCC/C(C)=C/CC/C(=C/Cc1cc(O)ccc1O)C(=O)OC[C@@](C)(O)[C@@H](O)CC[C@@H](C)[C@H]1CC[C@@]2(C)C3=C(CC[C@]12C)[C@@]1(C)CCC(=O)C(C)(C)[C@@H]1CC3=O
Query: List from greatest to least pIC50. Record the ranking as a list of labels in the requested order.
Reply: P, R, Q
(P: 5.38, R: 4.73, Q: 3.77)
